# test_name: qHTS Assay for Lipid Storage Modulators (AID 1519); also: % is scaled to controls: 0 for no effect and ±100 for the full control effect
# test_parameters: Drosophila S3 cells, BODIPY lipid droplet/cell ratio, laser cytometry; at 57.5 µM (top of the series); cells loaded with oleic acid
Results filed as inconclusive are left out.
readout_type: activity change, negative = inhibition (%)
Number only, in %; omit the unit.

[
  {
    "compound": "COc1ccccc1CN1CCCC2(CCN(C(=O)c3ccncc3)CC2)C1",
    "activity change, negative = inhibition / %": 1.58
  },
  {
    "compound": "N#Cc1ccc(CN2CCCC3(CCN(C(=O)c4ccncc4)CC3)C2)cc1",
    "activity change, negative = inhibition / %": 2.04
  },
  {
    "compound": "Cn1cccc1C(=O)N1CCC2(CCCN(Cc3ccc(C#N)cc3)C2)CC1",
    "activity change, negative = inhibition / %": 1.29
  },
  {
    "compound": "O=C(c1ccco1)N1CCC2(CCN(Cc3nccs3)CC2)CC1",
    "activity change, negative = inhibition / %": 1
  }
]

Provide activity change, negative = inhibition value for the following compound: Cc1cnc(CNc2nc(-c3ccc(N(C)C)cc3)nc3ccccc23)cn1
11.9

Provide activity change, negative = inhibition value for the following compound: O=C(c1cnccn1)N1CCC2(CC1)CCN(c1ccncc1)CC2
2.66

Provide activity change, negative = inhibition value for the following compound: CC(=O)N1CCC[C@@]2(CCN(Cc3nccs3)C2)C1
6.81

====

# System: DIV30
# test_name: qHTS profiling for inhibitors of Plasmodium falciparum proliferation (AID 504749);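 also: 0% = DMSO vehicle and full inhibition = artemisinin control; nearly all actives have a fitted effect of over 60% in size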
# test_parameters: P. falciparum in erythrocytes, SYBR Green DNA, 72 h; series mostly up to 12.8 µM
Records with an inconclusive call do not appear. The source made the active and inactive calls. Calls come from the whole dose curve; as a rule, active = well fitted inhibition curve with a large enough effect; inconclusive = small, poorly fitted or top-dose-only effect; inactive = flat fitted curve, though single readings scatter.
Thanks in advance; please answer with one of these: T (active), F (inactive)

Solved cases below.
[
  {
    "compound": "O=C(c1ccccc1)c1ccc2n1CC[C@H]2C(=O)O",
    "class_assignment": "F"
  },
  {
    "compound": "CC(=O)Nc1c(I)c(C(=O)N[C@H]2[C@@H](O)[C@H](O)[C@H](CO)O[C@@H]2O)c(I)c(N(C)C(C)=O)c1I",
    "class_assignment": "F"
  }
]

Any idea what this test logged for CO/N=C(\C(=O)N[C@@H]1C(=O)N2C(C(=O)O)=C(COC(C)=O)CS[C@@H]12)c1csc(N)n1 ?
F

Any idea what this test logged for CC[C@]1(C)CC(=O)NC1=O ?
F

====

# assay_system: Glucocorticoid receptor (Homo sapiens) (UniProt P04150)
# Sequence (P04150 whole entry, looked up): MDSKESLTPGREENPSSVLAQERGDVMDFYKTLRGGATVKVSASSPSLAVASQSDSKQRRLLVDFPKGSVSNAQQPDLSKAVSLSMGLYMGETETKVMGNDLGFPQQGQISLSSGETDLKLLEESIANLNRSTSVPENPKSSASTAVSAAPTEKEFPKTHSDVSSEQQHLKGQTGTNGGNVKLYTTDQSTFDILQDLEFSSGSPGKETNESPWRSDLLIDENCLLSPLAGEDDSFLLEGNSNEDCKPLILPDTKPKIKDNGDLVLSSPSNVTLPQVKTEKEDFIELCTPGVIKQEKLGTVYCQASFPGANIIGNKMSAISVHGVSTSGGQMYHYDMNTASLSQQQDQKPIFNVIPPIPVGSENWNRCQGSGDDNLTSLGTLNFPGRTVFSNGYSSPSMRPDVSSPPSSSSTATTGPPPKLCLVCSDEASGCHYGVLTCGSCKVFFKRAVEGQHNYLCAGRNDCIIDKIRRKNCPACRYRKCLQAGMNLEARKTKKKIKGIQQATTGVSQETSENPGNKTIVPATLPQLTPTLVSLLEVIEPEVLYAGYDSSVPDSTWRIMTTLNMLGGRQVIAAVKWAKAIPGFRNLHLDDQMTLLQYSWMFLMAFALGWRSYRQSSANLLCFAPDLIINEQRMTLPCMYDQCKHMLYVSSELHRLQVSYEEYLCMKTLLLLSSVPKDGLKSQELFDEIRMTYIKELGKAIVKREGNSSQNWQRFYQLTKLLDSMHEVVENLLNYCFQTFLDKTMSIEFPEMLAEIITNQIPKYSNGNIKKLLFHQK
# test_name: GR-EFC Redistribution (AID 451); also: potency is read from the fitted curve at half-maximal effect
# test_parameters: CHO-K1 GR-EFC translocation, beta-gal luminescence, 2 h
Calls of active or inactive are those of the source. The call rests on the fitted dose curve.
Listing: Potency of selected compounds

Some compounds with recorded Potency:
[
  {
    "substance_smiles": "CC(C)NC(=O)N1CC[C@@]2(CCCN(C(=O)c3ccco3)C2)C1",
    "measured_value": "> 46 µM (inactive)"
  },
  {
    "substance_smiles": "CN(C)c1ccc(-c2ccc3ncnc(NCc4ccccc4)c3c2)cc1",
    "measured_value": "> 46 µM (inactive)"
  },
  {
    "substance_smiles": "COc1ncc2nc(-c3ccc(F)cc3)c(=O)n(C[C@H]3CCCO3)c2n1",
    "measured_value": "> 46 µM (inactive)"
  },
  {
    "substance_smiles": "Cc1cc(/C=C\\c2ccc3cc(N(C)C)ccc3[n+]2C)c(C)n1-c1ccccc1",
    "measured_value": "> 20.6 µM (inactive)"
  }
]

Proceed to the following item.
Provide Potency value for the following compound: COCCn1c(=O)c(CCc2ccccc2)nc2cnc(Nc3ccccc3)nc21
> 46 µM (inactive)

====

# assay_system: Cytochrome P450 2D6 (Homo sapiens) (UniProt P10635)
# Sequence (P10635 whole entry, looked up): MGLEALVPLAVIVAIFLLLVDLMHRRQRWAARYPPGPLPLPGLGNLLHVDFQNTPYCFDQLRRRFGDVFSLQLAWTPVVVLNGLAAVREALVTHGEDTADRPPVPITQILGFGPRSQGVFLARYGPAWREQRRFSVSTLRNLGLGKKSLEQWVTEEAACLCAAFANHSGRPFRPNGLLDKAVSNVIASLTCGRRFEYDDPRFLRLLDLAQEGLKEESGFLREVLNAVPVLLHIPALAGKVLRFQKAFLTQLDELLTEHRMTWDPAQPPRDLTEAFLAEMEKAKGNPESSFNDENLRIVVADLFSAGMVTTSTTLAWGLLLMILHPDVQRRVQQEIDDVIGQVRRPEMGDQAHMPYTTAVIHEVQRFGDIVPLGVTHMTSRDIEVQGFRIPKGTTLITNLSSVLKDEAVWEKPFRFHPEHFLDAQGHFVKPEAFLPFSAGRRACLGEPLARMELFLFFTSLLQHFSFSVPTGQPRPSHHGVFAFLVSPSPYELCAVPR
# test_name: qHTS Assay for Inhibitors and Substrates of Cytochrome P450 2D6 (AID 891); also: nearly all actives have a fitted effect of over 60% in size
# test_parameters: recombinant CYP2D6, luciferin-ME EGE luminescence; series mostly up to 57.1 µM
Results filed as inconclusive are left out. Calls of active or inactive are those of the source. Calls come from the whole dose curve; as a rule, active = well fitted inhibition curve with a large enough effect; inconclusive = small, poorly fitted or top-dose-only effect; inactive = no such curve, though single readings can be large or run the other way.
Thanks in advance; please answer with one of these: True for active, False for inactive

Solved cases below.
[
  {
    "substance_smiles": "CN(C)c1ccc(-c2nc(-n3ccnc3)c3ccccc3n2)cc1",
    "class_assignment": "True"
  },
  {
    "substance_smiles": "CN1Cc2c(N)cccc2[C@H](c2ccccc2)C1",
    "class_assignment": "True"
  },
  {
    "substance_smiles": "COc1c(-c2ccc(O)c(O)c2)oc2cc(O)cc(O)c2c1=O",
    "class_assignment": "False"
  }
]

Any idea what this test logged for COc1cccc(-c2nc(NCCNC(C)=O)c3ccccc3n2)c1 ?
True

Any idea what this test logged for CC(=O)N1CCC2(CCCN(Cc3ccccc3)C2)CC1 ?
True

Any idea what this test logged for COc1ccccc1CN1CCC2(CC1)CCN(C(=O)c1cccn1C)CC2 ?
True

====

# assay_system: Dual specificity protein kinase CLK4 (Homo sapiens) (UniProt Q9HAZ1)
# Sequence (Q9HAZ1 whole entry, looked up): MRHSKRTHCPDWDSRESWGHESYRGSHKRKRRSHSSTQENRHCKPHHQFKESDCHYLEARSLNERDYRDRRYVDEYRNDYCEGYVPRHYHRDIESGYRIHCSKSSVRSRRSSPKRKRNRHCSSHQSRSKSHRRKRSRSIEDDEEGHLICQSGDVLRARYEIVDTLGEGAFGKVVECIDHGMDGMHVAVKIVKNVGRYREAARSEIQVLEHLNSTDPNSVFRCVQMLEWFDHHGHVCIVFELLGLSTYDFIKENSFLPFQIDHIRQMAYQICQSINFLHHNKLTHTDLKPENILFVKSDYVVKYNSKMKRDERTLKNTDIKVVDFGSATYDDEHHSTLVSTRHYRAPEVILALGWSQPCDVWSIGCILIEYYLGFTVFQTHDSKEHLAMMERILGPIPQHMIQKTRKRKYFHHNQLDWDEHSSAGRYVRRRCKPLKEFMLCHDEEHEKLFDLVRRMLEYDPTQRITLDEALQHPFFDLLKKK
# test_name: qHTS Assay for Inhibitors of CDC-like Kinase 4 (ADP-Glo Assay) (AID 1771); also: nearly all actives have a fitted effect of over 70% in size; also: potency is read from the fitted curve at half-maximal effect
# test_parameters: recombinant CLK4, ADP-Glo luminescence; series mostly up to 80 µM
# Text: NIH Molecular Libraries Probe Production Centers Network [MLPCN] NIH Chemical Genomics Center [NCGC] […] In the assay, the ADP levels were detected using Promega ADP-Glo technology wherein the remaining ATP from the kinase reaction is first depleted with an ATPase reagent followed by a reagent that contains and enzyme which converts the ADP produced to ATP as well as Ultra-Glo luciferase and D-luciferin which generates a bioluminescence signal from the ATP. […]
Records with an inconclusive call do not appear. Activity calls are given as the source filed them. Calls come from the whole dose curve; as a rule, active = well fitted inhibition curve with a large enough effect; inconclusive = small, poorly fitted or top-dose-only effect; inactive = flat fitted curve, though single readings scatter.
readout_type: Potency

Some molecules with recorded Potency:
[
  {
    "substance_smiles": "CN(C)c1ncc2nc(-c3cc(F)cc(F)c3)c(=O)n(-c3ccccc3)c2n1",
    "Potency": "inactive"
  },
  {
    "substance_smiles": "COc1ccccc1-c1cncnc1N(C)Cc1ccco1",
    "Potency": "inactive"
  },
  {
    "substance_smiles": "COCCn1c(=O)cnc2cnc(N3CCOCC3)nc21",
    "Potency": "inactive"
  },
  {
    "substance_smiles": "c1cncc(-c2nccc(NCc3cccs3)n2)c1",
    "Potency": "10 µM (active)"
  },
  {
    "substance_smiles": "CCNc1ncc2nc(-c3ccc(F)cc3)c(=O)n(C[C@H]3CCCO3)c2n1",
    "Potency": "inactive"
  },
  {
    "substance_smiles": "Cc1cnc(CNc2cc(-c3cccc(C#N)c3)ncn2)cn1",
    "Potency": "35.5 µM (active)"
  },
  {
    "substance_smiles": "Cn1cc(-c2nc3cnc(N4CCOCC4)nc3n(CCC#N)c2=O)c2ccccc21",
    "Potency": "inactive"
  },
  {
    "substance_smiles": "COc1cccc(Cn2c(=O)c(-c3cc(F)cc(F)c3)nc3cncnc32)c1",
    "Potency": "inactive"
  },
  {
    "substance_smiles": "c1cncc(-c2cc(NCc3cccs3)ncn2)c1",
    "Potency": "28.2 µM (active)"
  },
  {
    "substance_smiles": "COc1ccccc1CNc1ccnc(-c2ccc(N(C)C)cc2)n1",
    "Potency": "inactive"
  }
]

Provide Potency value for the following molecule: COc1ccc(-c2nc3cnc(OCc4ccccc4)nc3n(CCC#N)c2=O)cc1
inactive

====

# test_name: AP1 Signaling Pathway (AID 357);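 also: ME-180 reporter cells stimulated with EGF at its EC50 level; % is scaled to controls: 0 for no effect and ±100 for the full control effect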
# test_parameters: ME-180 (cervical carcinoma) AP-1-bla reporter, EGF-induced, beta-lactamase ratio, 5 h; at 17.2 µM (top of the series)
Results filed as inconclusive are left out.
readout_type: activity change, negative = inhibition (%)
Number only, in %; omit the unit.

Some compounds with recorded activity change, negative = inhibition:
[
  {
    "substance_smiles": "COc1ccc([C@H]2Sc3ccccc3N(CCN(C)C)C(=O)[C@H]2OC(C)=O)cc1",
    "activity change, negative = inhibition [%]": -10.4
  },
  {
    "substance_smiles": "C[C@@H](COc1ccccc1)N(CCCl)Cc1ccccc1",
    "activity change, negative = inhibition [%]": -0.257
  },
  {
    "substance_smiles": "CC(=O)[C@@H]1CC[C@@H]2[C@@H]3CCC4=CC(=O)CC[C@@]4(C)[C@H]3CC[C@]21C",
    "activity change, negative = inhibition [%]": 2.95
  },
  {
    "substance_smiles": "C=CCc1ccccc1OC[C@H](O)CNC(C)C",
    "activity change, negative = inhibition [%]": 12.5
  },
  {
    "substance_smiles": "O=C(O)CNC(=O)[C@@H](CS)Cc1ccccc1",
    "activity change, negative = inhibition [%]": 1.14
  }
]

Provide activity change, negative = inhibition value for the following compound: CO/N=C(\C(=O)N[C@@H]1C(=O)N2C(C(=O)O)=C(COC(C)=O)CS[C@@H]12)c1csc(N)n1
-5.85

Provide activity change, negative = inhibition value for the following compound: C[C@H](NCCc1ccc(O)cc1)[C@@H](O)c1ccc(O)cc1
-5.73

Provide activity change, negative = inhibition value for the following compound: O[C@@](CCN1CCCCC1)(c1ccccc1)C1CCCCC1
7.19
